Where do the numbers come from? From the Deep4Chem optical property database.

fluorescence lifetime values, listed per item
Assay: solvent given as SMILES
Details: in CCOC(C)=O
Provide only the numeric value, understood in ns.

# molecule, attribute.measured, result
rows = [
    ("CC1=[N+]2C(=C(c3ccc(N(c4ccccc4)c4ccccc4)cc3)c3ccc(C)n3[B-]2(F)F)C=C1c1cc2n(c1)[B-](F)(F)[N+]1=CC=CC1=C2c1c(C)cc(C)cc1C", "fluorescence lifetime", 0.72),
    ("COC(=O)c1ccc(C#Cc2ccc(N(C)C)cc2)cc1", "fluorescence lifetime", 2.47),
    ("CC1=[N+]2C(=C(NC(C)c3ccccc3)c3ccc(C)n3[B-]2(F)F)C=C1c1cc2n(c1)[B-](F)(F)[N+]1=CC=CC1=C2c1c(C)cc(C)cc1C (centres undefined)", "fluorescence lifetime", 0.52),
]

[Q] Given the entry `Cc1cc(C(F)(F)F)nc2c1ccc1nc(-c3ccc(F)c(F)c3)cn12` , report its measured fluorescence lifetime.
[A] 7.26

----------
Test: solvent given as SMILES
Details: in ClCCl
Below, each entry is listed with its recorded fluorescence lifetime.
Give the number; ns is assumed, so skip it.

# example entries with known answers
# chem.smiles, fluorescence lifetime (ns)
records = [
    ("COc1c2ccccc2c(OC)c2c1c1c(F)cccc1n2C", 21.2),
    ("CN(C)c1ccc(-c2nc3c(c4c2-c2ccccc2CC4)-c2ccccc2CC3)cc1", 0.8),
    ("COc1ccc(/C=C/C2=CC(/C=C/c3ccc(OC)c4ccccc34)=[O+][B-](F)(F)O2)c2ccccc12", 1.96),
]

[Q] Name the reported fluorescence lifetime value associated with the compound `O=[N+]([O-])c1ccc(C#Cc2ccc3ccccc3c2)cc1`
[A] 0.35

[Q] What about `CC(C)(C)c1cc(-c2cc3c(cc(-c4cc(C(C)(C)C)cc(C(C)(C)C)c4)n3-c3ccc(C(=C(c4ccccc4)c4ccccc4)c4ccccc4)cc3)n2-c2ccc(C(=C(c3ccccc3)c3ccccc3)c3ccccc3)cc2)cc(C(C)(C)C)c1` ?
[A] 1.6

[Q] Then `FC(F)(F)c1ccc(/C2=C3N=C(C(c4ccccc4)=C/3c3ccccc3)/C(c3ccc(C(F)(F)F)cc3)=c3\[nH]/c(c(-c4ccccc4)c3-c3ccccc3)=C(/c3ccc(C(F)(F)F)cc3)C3=N/C(=C(/c4ccc(C(F)(F)F)cc4)c4[nH]c2c(-c2ccccc2)c4-c2ccccc2)C(c2ccccc2)=C3c2ccccc2)cc1` ?
[A] 0.423

----------
Consider the following compounds and their measured fluorescence lifetime readings.
Assay: solvent given as SMILES
Settings: in CS(C)=O
Please respond with the number in ns and leave the unit unwritten.

Below, 5 compounds whose answers are already recorded.
# chem.smiles, value.units, fluorescence lifetime
records = [
    ("CCOC(=O)CN1C(=O)C2=C(c3ccc(N4CCCCC4)cc3)N(CC(=O)OCC)C(=O)C2=C1c1ccc(C#N)cc1", "ns", 3.72),
    ("COc1ccc(C2=CC(c3ccc4cc(N(C)C)ccc4c3)=[O+][B-](F)(F)O2)cc1", "ns", 0.54),
    ("CC1(C)C(/C=C/C2=C(c3ccc(C(=O)O)cc3)C(=C/C=C3/N(CCCCS(=O)(=O)[O-])c4ccccc4C3(C)C)/CC2)=[N+](CCCCS(=O)(=O)[O-])c2ccccc21", "ns", 1.11),
    ("O=C1c2ccccc2-c2ccc(N3CCN(c4ccccc4)CC3)c3cccc1c23", "ns", 0.06),
    ("O=C1/C(=C2\\Sc3ccc(S(=O)(=O)Nc4ccccc4)cc3C2=O)Sc2ccc(S(=O)(=O)Nc3ccccc3)cc21", "ns", 0.12),
]

[Q] So what does the record say about fluorescence lifetime for `CCOC(=O)CN1C(=O)C2=C(c3ccc(C#N)cc3)N(CC(=O)OCC)C(=O)C2=C1c1ccc(C#N)cc1` ?
[A] 6.5

[Q] Entry `Nc1ccc2c(C(F)(F)F)cc(=O)oc2c1` please
[A] 5

[Q] Ok, now `CC(=O)O[B-]1(OC(C)=O)OC(/C=C/c2cccc3ccccc23)=CC(/C=C/c2cccc3ccccc23)=[O+]1`
[A] 4.24

----------
Experiment: solvent given as SMILES
Conditions: in ClCCl
fluorescence lifetime class ranges: low range: < 3 ns; mid range: ≥ 3 ns and < 6 ns; high range: ≥ 6 ns

[Q] Just checking, what class would you give `COc1ccc(-c2c3cc4ccccc4cc3c(C#Cc3ccccc3)c3cc4ccccc4cc23)cc1` here?
[A] low range

[Q] Another compound to check: `F[B-]1(F)Oc2ccc(Br)cc2-c2c3c(c4c([n+]21)CCc1ccccc1-4)CCc1ccccc1-3`
[A] low range

[Q] Field entry: `Cc1nc(-c2cc(C(F)(F)F)ccc2O)n2c1CCCC2`
[A] mid range

----------
Test: solvent given as SMILES
Conditions: in ClC(Cl)(Cl)Cl
fluorescence lifetime overview
Quick note: give the figure in ns, leave out the unit.

Observe how each entry below is paired with its result.
# chem.smiles, fluorescence lifetime, ns
measured = [
    ("CCCCCCCCOc1ccc2c3cccc4c(OCCCCCCCC)ccc(c5cccc1c52)c43", 3.82),
    ("CCCCCCC(CCCCCC)n1c(=O)c2c3ccc4cccc5c6cccc7ccc(c2c1=O)c(c76)c3c45", 8.7),
    ("COc1ccc(/C=C/C2=[O+][B-](F)(F)OC(/C=C/c3ccc(OC)c4ccccc34)=C2c2ccccc2)c2ccccc12", 0.94),
    ("COc1ccc(/C=C/C2=[O+][B-](F)(F)OC(/C=C/c3ccc(OC)cc3)=C2c2ccccc2)cc1", 0.7),
    ("CC1=CC(c2ccc3ccccc3c2)=[O+][B-]2(OC(=O)C(=O)O2)O1", 5.1),
]

The record that follows has no fluorescence lifetime shown yet.
[Q] Which value of fluorescence lifetime has been reported for `COc1ccc(/C=C/C2=CC(/C=C/c3ccc(OC)c4ccccc34)=[O+][B-](F)(F)O2)c2ccccc12` in the records?
[A] 1.18

----------
Assay: solvent given as SMILES
Conditions: in c1cc(-n2c3ccccc3c3ccccc32)cc(-n2c3ccccc3c3ccccc32)c1
attribute.measured: fluorescence lifetime (ns)
State the answer as a number, implicitly in ns.

# chem.smiles, fluorescence lifetime (ns)
rows = [
    ("c1ccc(-c2nnc(-c3ccc(N4c5ccccc5N(c5ccccc5)c5ccccc54)cc3)n2-c2ccccc2)cc1", 3.5),
    ("COc1ccc(-c2ccc3c(c2)c2cc(-c4ccc(OC)cc4)ccc2n3-c2ccc(C(=O)c3ccc4sc5ccccc5c4c3)cc2)cc1", 7.8),
    ("CC(C)(C)c1ccc2c(c1)c1cc(C(C)(C)C)ccc1n2-c1ccccc1-c1nccnc1C#N", 9.7),
    ("O=S(=O)(c1ccc(N2c3ccccc3[Si](c3ccccc3)(c3ccccc3)c3ccccc32)cc1)c1ccc(N2c3ccccc3[Si](c3ccccc3)(c3ccccc3)c3ccccc32)cc1", 4),
    ("N#Cc1cc(-n2c3ccccc3c3cccnc32)c(-n2c3ccccc3c3cccnc32)cc1C#N", 86),
]

[Q] Which value of fluorescence lifetime has been reported for `CC1(C)c2ccccc2N(c2ccc(S(=O)(=O)c3ccc(N4c5ccccc5C(C)(C)c5ccccc54)cc3)cc2)c2ccccc21` in the records?
[A] 21

[Q] Try this compound too: `CC(C)(C)c1ccc2c(c1)c1cc(C(C)(C)C)ccc1n2-c1ccc(-n2c3ccc(C(C)(C)C)cc3c3cc(C(C)(C)C)ccc32)c(-c2nccnc2C#N)c1`
[A] 7.2

[Q] Queued: `O=c1c2ccccc2n2c3ccc(-c4ccccc4)cc3c(=O)c3cccc1c32`
[A] 5.5

[Q] Another compound to check: `O=C(c1ccc(N2c3ccccc3Oc3ccccc32)cc1)c1ccc(N2c3ccccc3Oc3ccccc32)cc1`
[A] 23

----------
Assay: solvent given as SMILES
Conditions: in CC#N
Documented fluorescence lifetime across a set of compounds
Write down the numeric answer in ns and omit the unit.

Solved entries (count: 6):
# chem.smiles, value.units, fluorescence lifetime
rows = [
    ("C=Cc1cc2ccc(N(CC)CC)cc2oc1=O", "ns", 2.84),
    ("Cn1cccc1-c1cc(C#N)ccc1C#N", "ns", 2.8),
    ("OB(O)c1ccc(-c2ccc(N(c3ccccc3)c3ccccc3)cc2)cc1", "ns", 2.24),
    ("COc1ccc(/C=C/C2=CC(/C=C/c3ccc(OC)cc3)=[O+][B-](OC(C)=O)(OC(C)=O)O2)cc1", "ns", 2.09),
    ("Cc1cccc2nc3[nH]c(=O)[nH]c(=O)c3nc12", "ns", 0.9),
    ("COc1ccc2c(=O)c3c([nH]c2c1)-c1cc(Cl)ccc1NC3(C)C", "ns", 9.32),
]

[Q] Any idea what its fluorescence lifetime is? The compound is `N#C/C(=C\c1ccncc1)c1nc(-c2ccc(Cl)cc2)cs1`
[A] 4.24

[Q] Please answer likewise for `C[n+]1ccc2c(ccc3c[n+](C)c4ccc5ccccc5c4c32)c1`
[A] 10.2

----------
Assay: solvent given as SMILES
Conditions: in CC#N
attribute.measured: fluorescence lifetime (ns)
Please respond with the number in ns and leave the unit unwritten.

Some solved entries appear below for comparison.
# compound, attribute.measured, result
data = [
    ("Cc1ccc(-c2ccc(/C=C/c3ccc(N(C)C)cc3)cn2)nc1", "fluorescence lifetime", 1.22),
    ("NS(=O)(=O)c1ccc(N2N=C(c3ccc(O)cc3)CC2c2ccc(Cl)cc2)cc1 (stereo not given)", "fluorescence lifetime", 2.29),
    ("COc1ccc(C#Cc2ccc(C#Cc3ccc(P(=O)(c4ccccc4)c4ccccc4)cc3)cc2)cc1", "fluorescence lifetime", 1.13),
    ("CCCC(=O)c1c2c(c(C(=O)CCC)c3c1OC(CC(=O)OC)(C(=O)OC)O3)OCO2", "fluorescence lifetime", 22.5),
]

Consider the additional compound presented here.
[Q] Would you mind telling me what fluorescence lifetime value was observed for `Cc1ccc(-c2sc(/C(C#N)=C/c3ccc(C#N)cc3)nc2-c2ccc(Cl)cc2)cc1` ?
[A] 3.02
